# Tested on: KRAS PDC multicell spheroid viability
# ASSAY_TEXT: Anticancer human tumor 521955-158-R6-J3-PDC patient-derived pancreatic carcinoma cell line growth inhibition [KRAS2]
# CONDITIONS_USED: second compound 3.16 µM; first compound 0.0316 µM; stronger effect = lower value
Assign labels as follows, please: Criterion met for viability, T/C below 80%; Criterion not met for viability, T/C equal to or exceeding 80%.

[[record]]
compound = "COc1cc(Nc2ncc3c(n2)-c2ccc(Cl)cc2C(c2c(F)cccc2OC)=NC3)ccc1C(=O)O + CC1OCC2(CCN(c3cnc(Sc4ccnc(N)c4Cl)c(N)n3)CC2)C1N"
label_class = "Criterion not met"

[[record]]
compound = "COc1cc(Nc2ncc3c(n2)-c2ccc(Cl)cc2C(c2c(F)cccc2OC)=NC3)ccc1C(=O)O + COc1cc2nc(C)nc(NC(C)c3cc(N)cc(C(F)(F)F)c3)c2cc1OC1CCOC1"
label_class = "Criterion met"

[[record]]
compound = "CC(=O)OC12COC1CC(O)C1(C)C(=O)C(O)C3=C(C)C(OC(=O)C(O)C(NC(=O)OC(C)(C)C)c4ccccc4)CC(O)(C(OC(=O)c4ccccc4)C21)C3(C)C (stereo not given) + COc1cc2nc(C)nc(NC(C)c3cc(N)cc(C(F)(F)F)c3)c2cc1OC1CCOC1"
label_class = "Criterion met"

[[record]]
compound = "Cn1ncnc1[C@H]1c2n[nH]c(=O)c3cc(F)cc(c23)N[C@@H]1c1ccc(F)cc1 + COc1cc2nc(C)nc(NC(C)c3cc(N)cc(C(F)(F)F)c3)c2cc1OC1CCOC1"
label_class = "Criterion met"

[[record]]
compound = "CC1(C)CCC(CN2CCN(c3ccc(C(=O)NS(=O)(=O)c4ccc(NCC5CCOCC5)c([N+](=O)[O-])c4)c(Oc4cnc5[nH]ccc5c4)c3)CC2)=C(c2ccc(Cl)cc2)C1 + CC1OCC2(CCN(c3cnc(Sc4ccnc(N)c4Cl)c(N)n3)CC2)C1N"
label_class = "Criterion not met"


----------
# Test system: KRAS PDC multicell spheroid viability
# ASSAY_TEXT: Anticancer human tumor 521955-158-R6-J3-PDC cell line growth inhibition [KRAS2];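 also: drug exposure lasted seven days; 100% = DMSO vehicle wells and lower means fewer viable cells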
# CONDITIONS_USED: second compound 0.316 µM; first compound 0.1 µM; stronger effect = lower value
RECORDED_ENDPOINT: viability, T/C (%)

[[record]]
molecule = "COc1cc(Nc2ncc3c(n2)-c2ccc(Cl)cc2C(c2c(F)cccc2OC)=NC3)ccc1C(=O)O + COc1cc2nc(C)nc(NC(C)c3cc(N)cc(C(F)(F)F)c3)c2cc1OC1CCOC1"
recorded_endpoint = "viability, T/C"
data_value = 86.3

[[record]]
molecule = "CC(C)NCC(C(=O)N1CCN(c2ncnc3c2C(C)CC3O)CC1)c1ccc(Cl)cc1 (stereo unspecified) + C=CC(=O)N1CCN(c2nc(=O)n(-c3c(C)ccnc3C(C)C)c3nc(-c4c(O)cccc4F)c(F)cc23)C(C)C1"
recorded_endpoint = "viability, T/C"
data_value = 89

[[record]]
molecule = "Cn1ncnc1[C@H]1c2n[nH]c(=O)c3cc(F)cc(c23)N[C@@H]1c1ccc(F)cc1 + C=CC(=O)N1CCN(c2nc(=O)n(-c3c(C)ccnc3C(C)C)c3nc(-c4c(O)cccc4F)c(F)cc23)C(C)C1"
recorded_endpoint = "viability, T/C"
data_value = 108

[[record]]
molecule = "COc1cc2nccc(Oc3ccc(NC(=O)C4(C(=O)Nc5ccc(F)cc5)CC4)cc3)c2cc1OC + CNCc1ccccc1-c1csc(C(C)Nc2nc(C)nc3cc(OC)c(OC)cc23)c1"
recorded_endpoint = "viability, T/C"
data_value = 92.9

[[record]]
molecule = "CCN1CCN(Cc2ccc(Nc3ncc(F)c(-c4cc(F)c5nc(C)n(C(C)C)c5c4)n3)nc2)CC1 + COc1cc2nc(C)nc(NC(C)c3cc(N)cc(C(F)(F)F)c3)c2cc1OC1CCOC1"
recorded_endpoint = "viability, T/C"
data_value = 69.8

[[record]]
molecule = "CCNC(=O)CC1N=C(c2ccc(Cl)cc2)c2cc(OC)ccc2-n2c(C)nnc21 (stereo unspecified) + C=CC(=O)N1CCN(c2nc(=O)n(-c3c(C)ccnc3C(C)C)c3nc(-c4c(O)cccc4F)c(F)cc23)C(C)C1"
recorded_endpoint = "viability, T/C"
data_value = 105

[[record]]
molecule = "CC1OCC2(CCN(c3cnc(Sc4ccnc(N)c4Cl)c(N)n3)CC2)C1N (stereo unspecified) + C=CC(=O)N1CCN(c2nc(OCC3CCCN3C)nc3c2CCN(c2cccc4cccc(C)c24)C3)CC1CC#N"
recorded_endpoint = "viability, T/C"
data_value = 86.1

[[record]]
molecule = "Cn1nccc1Nc1nccc(-c2cc3c(s2)C(C)(C)N(CCN2CCOCC2)C3=O)n1 + CC1OCC2(CCN(c3cnc(Sc4ccnc(N)c4Cl)c(N)n3)CC2)C1N"
recorded_endpoint = "viability, T/C"
data_value = 95.5

[[record]]
molecule = "CC1COCCN1c1cc(-c2ccnn2C)c2ccnc(-c3ccn[nH]3)c2n1 (stereo unspecified) + C=CC(=O)N1CCN(c2nc(=O)n(-c3c(C)ccnc3C(C)C)c3nc(-c4c(O)cccc4F)c(F)cc23)C(C)C1"
recorded_endpoint = "viability, T/C"
data_value = 87.8

[[record]]
molecule = "CCN1CCN(Cc2ccc(Nc3ncc(F)c(-c4cc(F)c5nc(C)n(C(C)C)c5c4)n3)nc2)CC1 + CNCc1ccccc1-c1csc(C(C)Nc2nc(C)nc3cc(OC)c(OC)cc23)c1"
recorded_endpoint = "viability, T/C"
data_value = 68

[[record]]
molecule = "CCNC(=O)CC1N=C(c2ccc(Cl)cc2)c2cc(OC)ccc2-n2c(C)nnc21 (stereo unspecified) + C=CC(=O)N1CCN(c2nc(OCC3CCCN3C)nc3c2CCN(c2cccc4cccc(C)c24)C3)CC1CC#N"
recorded_endpoint = "viability, T/C"
data_value = 93.2

